// data source = patent US20150322051A1

Tested on: Puccinia triticina; synonym: Puccinia recondita f. sp. tritici (PUCCRT)
Test: Wheat brown rust (PUCCRT) whole-plant fungicidal test
Assay type: in vivo
Conditions: topical, 72 h, low volume (track spray) application, 121.5 g/H, 3 Day Curative, read-out: Low Volume activity at 121.5 g/H PUCCRT 3DC (% disease control rating)
Method: All fungicides were evaluated using the aforementioned method for their activity vs. all target diseases, unless stated otherwise. Wheat leaf blotch and brown rust activity were also evaluated using track spray applications, in which case the fungicides were formulated as EC formulations, containing 0.1% Trycol 5941 in the spray solutions. […] Percent disease control was calculated using the ratio of disease severity on treated plants relative to untreated plants. […]
Quantity Kind: pest or weed control at 121.5 g/ha

In [3]: df
Out[3]:
                                   compound                       quantity_kind  result
0  CCOCC(=O)OCOc1c(OC)ccnc1C(=O)N[C@H]1CCC[C@H](Cc2ccc(C(F)(F)F)cc2)[C@@H](Cc2ccc(OC(F)(F)F)cc2)[C@H](C)OC1=O [Compound 66]  pest or weed control at 121.5 g/ha   < 70%
1  COc1ccnc(C(=O)N[C@H]2CCC[C@H](Cc3ccc(C(F)(F)F)cc3)[C@@H](Cc3ccccc3)[C@H](C)OC2=O)c1OCOC(C)=O [Compound 26]  pest or weed control at 121.5 g/ha   < 70%

Please report the measured pest or weed control at 121.5 g/ha for COc1ccnc(C(=O)N[C@H]2CCC[C@H](CCCc3ccccc3)[C@@H](CCc3ccccc3)[C@H](C)OC2=O)c1OCOC(C)=O [Compound 32] tested on Puccinia triticina; synonym: Puccinia recondita f. sp. tritici (PUCCRT). < 70%

Give reported pest or weed control at 121.5 g/ha for COc1ccnc(C(=O)N[C@H]2CCC[C@H](Cc3ccccc3)[C@@H](Cc3ccccc3)[C@H](C)OC2=O)c1OCOC(=O)C(C)C [Compound 7] (Puccinia triticina; synonym: Puccinia recondita f. sp. tritici (PUCCRT)) > 70%

Tell me pest or weed control at 121.5 g/ha of COc1ccnc(C(=O)N[C@H]2CCC[C@H](CCCc3ccccc3)[C@@H](Cc3ccc(OC(F)(F)F)cc3)[C@H](C)OC2=O)c1OCOC(C)=O [Compound 59] when tested on Puccinia triticina; synonym: Puccinia recondita f. sp. tritici (PUCCRT). < 70%

---

Entries and their measured pest or weed control at 121.5 g/ha follow.
system: Puccinia triticina; synonym: Puccinia recondita f. sp. tritici (PUCCRT); assay: Wheat brown rust (PUCCRT) whole-plant fungicidal test; type: in vivo; details: topical, 72 h, low volume (track spray) application, 121.5 g/H, 3 Day Curative, read-out: Low Volume activity at 121.5 g/H PUCCRT 3DC (% disease control rating)

Some entries whose results are on file:
In [3]: df
Out[3]:
                               entry_smiles  result
0  COc1ccnc(C(=O)N[C@H]2CCC[C@H](Cc3ccccc3)[C@@H](CCC(C)C)[C@H](C)OC2=O)c1OCOC(=O)C(C)C   < 70%
1  COc1ccnc(C(=O)N[C@H]2CCC[C@H](Cc3ccccc3)[C@@H](Cc3ccc(F)cc3)[C@H](C)OC2=O)c1OCOC(=O)C(C)C   < 70%

Identify the reported pest or weed control at 121.5 g/ha for the following entry. COc1ccnc(C(=O)N[C@H]2CCC[C@H](CCCc3ccccc3)[C@@H](Cc3ccc(OC(F)(F)F)cc3)[C@H](C)OC2=O)c1OC(=O)C(C)C < 70%

---

system: Puccinia triticina; synonym: Puccinia recondita f. sp. tritici (PUCCRT); assay: Wheat brown rust (PUCCRT) whole-plant fungicidal test; type: in vivo; settings: topical, 72 h, low volume (track spray) application, 121.5 g/H, 3 Day Curative, read-out: Low Volume activity at 121.5 g/H PUCCRT 3DC (% disease control rating)
Quantity Kind: pest or weed control at 121.5 g/ha

>>> print(df.to_string())
                               entry_smiles                       quantity_kind  result
0  CCC[C@H]1CCC[C@H](NC(=O)c2nccc(OC)c2OCOC(C)=O)C(=O)O[C@@H](C)[C@@H]1Cc1ccccc1  pest or weed control at 121.5 g/ha   > 70%
1  COc1ccnc(C(=O)N[C@H]2CCC[C@H](Cc3ccc(Cl)cc3)[C@@H](Cc3ccccc3)[C@H](C)OC2=O)c1OCOC(C)=O  pest or weed control at 121.5 g/ha   < 70%
2  COc1ccnc(C(=O)N[C@H]2CCC[C@H](Cc3ccc(C(F)(F)F)cc3)[C@@H](CC(C)C)[C@H](C)OC2=O)c1OC(C)=O  pest or weed control at 121.5 g/ha   < 70%

Report pest or weed control at 121.5 g/ha, nothing else, for this molecule: COc1ccnc(C(=O)N[C@H]2CCC[C@H](CCC(C)C)[C@@H](C3CCCC3)[C@H](C)OC2=O)c1OCOC(=O)C(C)C < 70%

Tell me pest or weed control at 121.5 g/ha reported for CCOCC(=O)OCOc1c(OC)ccnc1C(=O)N[C@H]1CCC[C@H](Cc2ccccc2)[C@@H](CCC(C)C)[C@H](C)OC1=O < 70%

Check the records and state pest or weed control at 121.5 g/ha for COc1ccnc(C(=O)N[C@H]2CCC[C@H](Cc3ccccc3)[C@@H](c3ccccc3)[C@H](C)OC2=O)c1OC(C)=O < 70%

Indicate the recorded pest or weed control at 121.5 g/ha value for this molecule: COc1ccnc(C(=O)N[C@H]2CCC[C@H](Cc3ccccc3)[C@@H](CCC(C)C)[C@H](C)OC2=O)c1OC(=O)C(C)C < 70%

Quote pest or weed control at 121.5 g/ha reported for CCC[C@H]1CCC[C@H](NC(=O)c2nccc(OC)c2OC(C)=O)C(=O)O[C@@H](C)[C@@H]1Cc1ccccc1 please. > 70%
